B1: MEF2-activating motif and SAP domain-containing transcriptional regulator, residues 170 to 204; numbered along this chain, Q6ZN01 (parent)
chain: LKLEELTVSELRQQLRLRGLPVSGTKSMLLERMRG

- Variants of: B1
- testMethodNotes: abundance fitness (aPCA) (normalised: wild type 0, dead -1); higher = more abundant; growth selection in yeast, the domain comes from the species named
- conditionDetails: Homo sapiens
Dear colleague, classification is by abundance fitness, with ranges listed here: class 1 = under -0.5, class 2 = from -0.5 up to -0.2, class 3 = -0.2 and over

# example entries with known answers
variantId: Q13C
labelClass: class 3
//
variantId: L11Q
labelClass: class 1
//
variantId: L11K
labelClass: class 1
//
variantId: L3Q
labelClass: class 2
//
variantId: L1F
labelClass: class 3

Band assignment needed for L17G please.
class 2

Band assignment needed for K2C please.
class 3

Band assignment needed for E10R please.
class 1

Band assignment needed for V22P please.
class 1

Band assignment needed for E5R please.
class 2

Band assignment needed for K26M please.
class 1
